Here the recorded selectivity ratio is given for each entry.
Test: Selectivity index, ratio of CC50 for CHO cells to MIC for multidrug (INH and RIF)-resistant Mycobacterium tuberculosis clinical isolate 1
Format: toxicity
Conditions: hamster, read-out: Selectivity Index

As a guide, the following entries are already answered.
CCOC(=O)c1c(-c2ccc(F)cc2)oc2ccc(OCCN3C(=O)C(=O)c4cc(F)ccc43)cc12    32
CCOC(=O)c1c(-c2ccc(OC)cc2)oc2ccc(OCCCCN3C(=O)C(=O)c4ccccc43)cc12    128
CCOC(=O)c1c(-c2ccccc2)oc2ccc(OCCCN3C(=O)/C(=N/O)c4ccccc43)cc12    64
CCOC(=O)c1c(-c2ccc(F)cc2)oc2ccc(OCCN3C(=O)C(=O)c4ccccc43)cc12    32
CCOC(=O)c1c(-c2ccccc2)oc2ccc(OCCCN3C(=O)/C(=N/O)c4cc(OC)ccc43)cc12    32

Alright, here's another compound for you.
Please look up its selectivity ratio: CCOC(=O)c1c(-c2ccc(OC)cc2)oc2ccc(OCCCCCCN3C(=O)/C(=N/NC(N)=S)c4cc(F)ccc43)cc12
1024

###

Each item that follows carries a reported MIC.
System: Mycobacterium tuberculosis
Test: Antimycobacterial activity against multidrug (INH and RIF)-resistant Mycobacterium tuberculosis clinical isolate 1 assessed as inhibition of bacterial growth incubated for 7 days by rapid direct susceptibility test technique
Type: functional
Conditions: 168 h
A bare number is not enough; add the unit after it.

Recorded results for 3 compounds are shown here.
CCOC(=O)c1c(-c2ccc(OC)cc2)oc2ccc(OCCCCCCN3C(=O)/C(=N/NC(N)=S)c4cc(F)ccc43)cc12    0.125 µg/mL
CCOC(=O)c1c(-c2ccc(F)cc2)oc2ccc(OCCCN3C(=O)C(=O)c4ccccc43)cc12    1 µg/mL
CCOC(=O)c1c(-c2ccccc2)oc2ccc(OCCCN3C(=O)/C(=N/O)c4ccccc43)cc12    8 µg/mL

Consider now this further compound.
Field request: MIC | item: CCOC(=O)c1c(-c2ccc(F)cc2)oc2ccc(OCCN3C(=O)C(=O)c4ccccc43)cc12
4 µg/mL

###

System: Mycobacterium tuberculosis
Assay: Antimycobacterial activity against multidrug (ethambutol, INH and RIF)-resistant Mycobacterium tuberculosis clinical isolate 2 assessed as inhibition of bacterial growth incubated for 7 days by rapid direct susceptibility test technique
Format: functional
Conditions: 168 h
The following compounds are shown together with reported MIC values.
Dear colleague, please return just the value in µg/mL, with no unit written.

CCOC(=O)c1c(-c2ccccc2)oc2ccc(OCCCN3C(=O)C(=O)c4cc(OC)ccc43)cc12    16
CCOC(=O)c1c(-c2ccccc2)oc2ccc(OCCCCCCN3C(=O)C(=O)c4ccccc43)cc12    2
CCOC(=O)c1c(-c2ccc(F)cc2)oc2ccc(OCCCN3C(=O)C(=O)c4ccccc43)cc12    2

Any idea what its MIC is? The compound is CCOC(=O)c1c(-c2ccccc2)oc2ccc(OCCN3C(=O)C(=O)c4cc(F)ccc43)cc12
2

Value lookup for MIC; key = CCOC(=O)c1c(-c2ccc(F)cc2)oc2ccc(OCCCCCCN3C(=O)/C(=N\O)c4cc(OC)ccc43)cc12
1

// query MIC value for entry CCOC(=O)c1c(-c2ccc(OC)cc2)oc2ccc(OCCCCCCN3C(=O)/C(=N/NC(N)=S)c4cc(F)ccc43)cc12
0.25

Look at this compound and give its reported MIC. CCOC(=O)c1c(-c2ccc(OC)cc2)oc2ccc(OCCCCCN3C(=O)C(=O)c4ccccc43)cc12
1

Quick one: MIC for CCOC(=O)c1c(-c2ccc(F)cc2)oc2ccc(OCCN3C(=O)C(=O)c4cc(OC)ccc43)cc12 ?
4

Return reported MIC; argument: CCOC(=O)c1c(-c2ccc(OC)cc2)oc2ccc(OCCCCN3C(=O)C(=O)c4ccccc43)cc12
4

Requested field: MIC. Item: CCOC(=O)c1c(-c2ccc(F)cc2)oc2ccc(OCCN3C(=O)C(=O)c4ccccc43)cc12
4

// query MIC value for entry CCOC(=O)c1c(-c2ccc(F)cc2)oc2ccc(OCCCCCCN3C(=O)C(=O)c4cc(OC)ccc43)cc12
2
